Biological target: Heat shock factor protein 1 (Mus musculus, UniProt P38532)
Sequence (P38532 whole entry): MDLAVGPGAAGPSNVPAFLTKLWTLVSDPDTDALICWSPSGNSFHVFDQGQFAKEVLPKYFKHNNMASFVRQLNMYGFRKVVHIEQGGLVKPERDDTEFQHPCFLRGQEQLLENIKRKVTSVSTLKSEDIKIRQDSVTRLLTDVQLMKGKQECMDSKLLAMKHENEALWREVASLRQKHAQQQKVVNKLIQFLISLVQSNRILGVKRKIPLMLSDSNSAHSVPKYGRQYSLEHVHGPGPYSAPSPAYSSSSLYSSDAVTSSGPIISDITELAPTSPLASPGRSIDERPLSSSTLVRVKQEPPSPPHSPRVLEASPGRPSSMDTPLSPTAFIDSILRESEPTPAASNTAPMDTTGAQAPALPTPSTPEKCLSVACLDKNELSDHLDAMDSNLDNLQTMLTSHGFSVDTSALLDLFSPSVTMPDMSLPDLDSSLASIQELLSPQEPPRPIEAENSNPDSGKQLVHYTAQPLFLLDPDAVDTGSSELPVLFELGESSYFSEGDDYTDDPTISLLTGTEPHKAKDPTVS
Experiment: decrease of HSF1-responsive luciferase luminescence – cell-based, NIH3T3, dose retest, confirmation (AID 2382);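 also: NIH3T3 fibroblasts with HSF1-driven luciferase reporter stressed by proteasome inhibitor MG132; luminescence from HSF1-driven luciferase expression after 8 hours of MG132 stress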
Assay type: functional
Active and inactive are the calls of the source. Rule as the data show it: actives have a measured EC50 and inactives only a lower limit.
Measured endpoint: EC50

Field: example entries. Status: answers known.
{"Compound string": "CCC(=O)Oc1oc(-c2ccccc2)nc1/C=N/c1ccccc1OC", "EC50": "10.3 µM (active)"}
{"Compound string": "CC(C)NS(=O)(=O)c1ccc(OCC(=O)N2CCCC2)c(Cl)c1", "EC50": "> 195 µM (not active)"}

What measured EC50 goes with CN(CC(=O)Nc1ccccc1Br)C(=O)c1cccn1C ?
> 195 µM (not active)
